Readings of activity change, negative = cytotoxicity for the listed compounds
System: Es-2
measurement.description: Primary qHTS to identify gynecologic anti-cancer compounds using libraries of approved drugs and bioactive compounds (AID 1345084); also: % is scaled to controls: 0 for no effect and ±100 for the full control effect; nearly all actives have a fitted effect of over 55% in size
cond: Gynecologic cancer cell panel viability, ATPlite luminescence, 48 h; series mostly up to 57.5 µM
Inconclusive results are not listed. Activity calls are given as the source filed them. Calls follow the shape of the dose curve; as a rule, active = well fitted cell-killing curve with a large enough effect; inconclusive = small, poorly fitted or top-dose-only effect, or effect the other way; inactive = flat fitted curve, though single readings scatter.
endpoint: activity change, negative = cytotoxicity

compound="COC1CC(O[C@H]2CC[C@@]3(C)C(CCC4C3[C@H](OC(C)=O)[C@@H](OC(=O)/C=C/c3ccccc3)[C@]3(C)C(C(C)=O)CC[C@]43O)C2)OC(C)C1OC1CC(OC)C(OC2CC(OC)C(OC3OC(C)C(OC4OC(CO)C(O)C(O)C4O)C(OC)C3O)C(C)O2)C(C)O1 (some centres undefined)" endpoint="activity change, negative = cytotoxicity" result="0.971% [at 6.55 µM] (inactive)"
compound=O=S(=O)(Nc1ccccn1)c1ccc(N=Cc2c(O)[nH]c3ccc4ncsc4c23)cc1 endpoint="activity change, negative = cytotoxicity" result="-0.0602% [at 11.6 µM] (inactive)"
compound="CC(=O)N[C@H]1[C@H](O[C@H]2CC[C@@]3(C)C(CC[C@]4(C)C3CC=C3C5CC(C)(C)CC[C@]5(C(=O)O)[C@H](O)C[C@]34C)C2(C)C)O[C@H](CO[C@@H]2OC[C@H](O)[C@H](O)[C@H]2O[C@@H]2OC[C@@H](O)[C@H](O)[C@H]2O)[C@@H](O)[C@@H]1O (some centres undefined)" endpoint="activity change, negative = cytotoxicity" result="-1.64% [at 11.6 µM] (inactive)"
compound="C[C@@H]1O[C@@H](O[C@H]2[C@H](O)[C@@H](O)[C@H](OC[C@H]3O[C@@H](OC(=O)[C@]45CCC(C)(C)C[C@H]4C4=CCC6[C@@]7(C)CC[C@H](O[C@@H]8OC[C@H](O)[C@H](O[C@@H]9O[C@H](CO)[C@@H](O)[C@H](O)[C@H]9O)[C@H]8O)[C@@](C)(CO)C7CC[C@@]6(C)[C@]4(C)CC5)[C@H](O)[C@@H](O)[C@@H]3O)O[C@@H]2CO)[C@H](O)[C@H](O)[C@H]1O (some centres undefined)" endpoint="activity change, negative = cytotoxicity" result="-1.94% [at 6.55 µM] (inactive)"
compound="CC1(C)CC[C@]2(C(=O)OC3OC(CO)C(O)C(O)C3O)CC[C@]3(C)C(=CCC4[C@@]5(C)CC[C@H](OC6OC(C(=O)O)C(O)C(OC7OC(CO)C(O)C(O)C7O)C6O)C(C)(C)C5CC[C@]43C)C2C1 (some centres undefined)" endpoint="activity change, negative = cytotoxicity" result="-1.41% [at 11.6 µM] (inactive)"
compound="CC12CCC(=O)C=C1C(O)CC1C2C(O)CC2(C)C1CC[C@]2(O)C(=O)CO (some centres undefined)" endpoint="activity change, negative = cytotoxicity" result="1.39% [at 11.6 µM] (inactive)"
compound="CC1(C)CC[C@]2(C(=O)O[C@@H]3O[C@H](CO)[C@@H](O)[C@H](O)[C@H]3O)CC[C@]3(C)C(=CCC4[C@@]5(C)CC[C@H](O[C@@H]6O[C@H](C(=O)O)[C@@H](O)[C@H](O[C@@H]7O[C@H](CO)[C@H](O)[C@H](O)[C@H]7O)[C@H]6O)C(C)(C)C5CC[C@]43C)C2C1 (some centres undefined)" endpoint="activity change, negative = cytotoxicity" result="-0.756% [at 11.6 µM] (inactive)"
compound="CC1OC(O[C@H]2CC[C@@]3(C)C(CC[C@]4(C)C3CC=C3C5CC(C)(C)CC[C@]5(C(=O)OC5OC(CO)C(OC6OC(COC7OCC(O)C(O)C7O)C(O)C(O)C6O)C(O)C5O)CC[C@]34C)C2(C)C)C(O)C(O)C1OC1OCC(OC2OCC(O)C(O)C2O)C(O)C1O (some centres undefined)" endpoint="activity change, negative = cytotoxicity" result="0.974% [at 6.55 µM] (inactive)"
compound="CC1OC(OC2C(OC3C(O[C@H]4CC[C@@]5(C)C(CC[C@]6(C)C5C(=O)C=C5C7CC(C)(C)CC(O)[C@]7(C)CC[C@]56C)C4(C)C)OC(C(=O)O)C(O)C3O)OCC(O)C2O)C(O)C(O)C1O (some centres undefined)" endpoint="activity change, negative = cytotoxicity" result="-2.72% [at 11.6 µM] (inactive)"
compound="CC1(C)CC[C@]2(C(=O)O[C@@H]3O[C@H](CO[C@@H]4O[C@H](CO)[C@@H](O)[C@H](O)[C@H]4O[C@@H]4O[C@H](CO)[C@@H](O)[C@H](O)[C@H]4O)[C@@H](O)[C@H](O[C@@H]4O[C@H](CO)[C@@H](O)[C@H](O)[C@H]4O)[C@H]3O)CC[C@]3(C)C(=CCC4[C@@]5(C)CC[C@@H](O)[C@@](C)(C(=O)O[C@@H]6O[C@H](CO)[C@@H](O)[C@H](O)[C@H]6O)C5CC[C@]43C)[C@@H]2C1 (some centres undefined)" endpoint="activity change, negative = cytotoxicity" result="0.72% [at 6.55 µM] (inactive)"
compound="CC1(C)CC[C@]2(CO[C@@H]3O[C@H](CO)[C@@H](O)[C@H](O)[C@H]3O)[C@@H](O)C[C@]3(C)C(=CCC4[C@@]5(C)CC[C@H](O[C@@H]6O[C@H](CO[C@@H]7O[C@H](CO[C@@H]8OC[C@@H](O)[C@H](O)[C@H]8O)[C@@H](O)[C@H](O)[C@H]7O)[C@@H](O)[C@H](O)[C@H]6O)C(C)(C)C5CC[C@]43C)[C@@H]2C1 (some centres undefined)" endpoint="activity change, negative = cytotoxicity" result="4.96% [at 11.6 µM] (inactive)"
compound=C[C@@H]1O[C@@H](O[C@@H]2[C@@H](O)[C@@H](O[C@]3(CO)O[C@H](CO)[C@@H](O)[C@@H]3OC(=O)/C=C/c3ccc(O)cc3)O[C@H](CO)[C@H]2OC(=O)/C=C/c2ccc(O)cc2)[C@H](O)[C@H](O)[C@H]1O[C@@H]1O[C@@H](C)[C@H](O[C@@H]2OC[C@](O)(CO)[C@H]2O)[C@@H](O)[C@H]1O endpoint="activity change, negative = cytotoxicity" result="-1.87% [at 11.6 µM] (inactive)"
compound="CC(C)=CCC/C(C)=C/CC/C(C)=C/COC1OC(COC2OCC(OC3OCC(O)C(O)C3O)C(O)C2O)C(O)C(OC2OC(C)C(OC3OC(C)C(OC4OCC(OC5OC(C)C(O)C(O)C5O)C(O)C4O)C(O)C3O)C(O)C2O)C1O (centres undefined)" endpoint="activity change, negative = cytotoxicity" result="-6.21% [at 6.55 µM] (inactive)"
compound="C[C@@H]1O[C@@H](O[C@H]2[C@H](O)[C@@H](O[C@@H]3O[C@H](CO)[C@@H](O)[C@H](O[C@@H]4O[C@H](CO)[C@@H](O)[C@H](O)[C@H]4O)[C@H]3O)[C@H](O[C@H]3CC[C@@]4(C)C(=CC[C@@H]5C4CC[C@@]4(C)C5C[C@@H]5OC6(CC[C@@](C)(CO[C@@H]7O[C@H](CO)[C@@H](O)[C@H](O)[C@H]7O)O6)[C@@H](C)[C@@H]54)C3)O[C@@H]2CO)[C@H](O)[C@H](O)[C@H]1OC1OC(CO)C(O)C(O)C1O (some centres undefined)" endpoint="activity change, negative = cytotoxicity" result="-3.32% [at 6.55 µM] (inactive)"

====

measurement.description: Primary fluorescence-based thiol-reactive (MSTI) qHTS assay for identification of artifact compounds. (AID 1845221);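 also: thiol-reactive compounds lower the probe fluorescence signal; nearly all actives have a fitted effect of over 65% in size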
cond: MSTI thiol-reactivity probe, 1 h; series mostly up to 53.8 µM
Results filed as inconclusive are left out. The source made the active and inactive calls. The call rests on the fitted dose curve; in most records, active means well fitted inhibition curve with a large enough effect; inconclusive means small, poorly fitted or top-dose-only effect; inactive means no such curve, though single readings can be large or run the other way.
endpoint: outcome

molecule=C/C1=C\C[C@]2(C)C(=O)C(O)=C([C@H](C)CO)[C@H]2C/C=C(\C)[C@@H](O)CC/C(C)=C/CC1 endpoint=outcome result=inactive
molecule="OC[C@H]1O[C@@H](OC(CCCCc2ccc(O)cc2)CCc2ccc(O)cc2)[C@H](O)[C@@H](O)[C@@H]1O (some centres undefined)" endpoint=outcome result=inactive
molecule=CN1CCC(Nc2nc(Nc3ccc(Oc4ccccc4)cc3)c3c(=O)[nH]cc(Br)c3n2)CC1 endpoint=outcome result=inactive
molecule="COC(=O)C12C(=O)C(C)=C(O)C1(C)C(C)=CC1C3(CO)CCC(O)C(C)(C)C3CCC12C (centres undefined)" endpoint=outcome result=inactive
molecule=CC(C)(C)NCCCNC(=O)c1cccc(Br)c1 endpoint=outcome result=inactive
molecule=CC(=O)N[C@@H](C(=O)O[C@H]1CCC(C)(C)[C@@H]2CCC3=C(COC3=O)[C@@]12C)C(C)C endpoint=outcome result=inactive
molecule="C=CC(C)(O)C(O)CC1C(C)(O)C(O)C(O)C2C(C)(C)CCCC21C (centres undefined)" endpoint=outcome result=inactive
molecule="C=C(C(=O)O)C1CC2=C(C)CCCC2(C)C[C@@H]1O (some centres undefined)" endpoint=outcome result=inactive
molecule=Nc1ncnc2c1ncn2CCNCCCCCO endpoint=outcome result=inactive
